Test system: MRSA (ATCC BAA-1556)
METHOD_NOTES: microbe, parasite or virus in culture
Type: cell-based, Methicillin-Resistant Staphylococcus aureus
SETUP_CONDITIONS: ATCC BAA-1556, 24 h
Non-standard residues stand in square brackets, D forms with d. Residues, ends and D or L forms follow the SMILES beside them. Dip = N[C@H](C(=O)O)C(c1ccccc1)c1ccccc1
OBSERVABLE: MIC (µM)

{"columns": ["COMPOUND", "REPORTED_VALUE"],
 "data": [
  ["N=C(N)NCCC[C@H](NC(=O)[C@@H](NC(=O)[C@H](CCCNC(=N)N)NC(=O)[C@H](Cc1c[nH]c2ccccc12)NC(=O)[C@H](CCCNC(=N)N)NC(=O)[C@H](Cc1c[nH]c2ccccc12)NC(=O)[C@H](CCCNC(=N)N)NC(=O)[C@H](Cc1c[nH]c2ccccc12)NC(=O)[C@H](CCCNC(=N)N)NC(=O)[C@@H](N)Cc1c[nH]c2ccccc12)C(c1ccccc1)c1ccccc1)C(=O)O [((DipR)(WR)4)] (H-WRWRWRWR[Dip]R-OH)", 6.3],
  ["N=C(N)NCCC[C@@H]1NC(=O)[C@H](C(c2ccccc2)c2ccccc2)NC(=O)[C@H](CCCNC(=N)N)NC(=O)[C@H](C(c2ccccc2)c2ccccc2)NC(=O)[C@H](CCCNC(=N)N)NC(=O)[C@H](C(c2ccccc2)c2ccccc2)NC(=O)[C@H](CCCNC(=N)N)NC(=O)[C@H](C(c2ccccc2)c2ccccc2)NC(=O)[C@H](CCCNC(=N)N)NC(=O)[C@H](C(c2ccccc2)c2ccccc2)NC1=O [[DipR]5] (cyclo([Dip]R[Dip]R[Dip]R[Dip]R[Dip]R))", 3.1]
]}
